Sourced from patent US8299056B2

Collected pIC50 values appear next to each entry.
target: Syk (Homo sapiens, UniProt P43405); construct: purchased Carna Biosciences; assay: Syk HTRF assay; type: biochemical; details: read-out: Activity Level (Syk HTRF assay IC50)
pIC50: −log10 of the molar value.

Entry CN1C(=O)C(C)(C)c2ccc(Nc3nc4cccc(N[C@H]5CC[C@H](O)CC5)n4n3)cc21 (stereo in doubt) , tested on Syk (Homo sapiens, UniProt P43405), has a reported pIC50 of 6.60 to 11.30

Entry `Cc1n[nH]c2ccc(Nc3nc4cccc(N[C@@H]5CCOC5)n4n3)cc12` , tested on Syk (Homo sapiens, UniProt P43405), has a reported pIC50 of 6.30 to 6.60

Entry `c1ccc(-c2cccc3nc(Nc4cncnc4)nn23)cc1` , tested on Syk (Homo sapiens, UniProt P43405), has a reported pIC50 of 5.00 to 6.00

Entry `c1ccc(-c2cccc3nc(Nc4ccc5oncc5c4)nn23)cc1` , tested on Syk (Homo sapiens, UniProt P43405), has a reported pIC50 of 6.60 to 11.30

Entry `Cc1nn(CCO)c2cc(Nc3nc4cccc(N[C@H]5CC[C@@H](O)CC5)n4n3)ccc12` , tested on Syk (Homo sapiens, UniProt P43405), has a reported pIC50 of 6.60 to 11.30

Entry `CC1(C)C(=O)Nc2cc(Nc3nc4cccc(O[C@H]5CCOC5)n4n3)ccc21` , tested on Syk (Homo sapiens, UniProt P43405), has a reported pIC50 of 6.30 to 6.60

Entry `Cc1n[nH]c2cc(Nc3nc4cccc(NC[C@@H]5CC[C@H](O)C5)n4n3)ccc12` , tested on Syk (Homo sapiens, UniProt P43405), has a reported pIC50 of 6.60 to 11.30

Entry `CC1(C)C(=O)Nc2cc(Nc3nc4cccc(CC5CCNCC5)n4n3)ccc21` , tested on Syk (Homo sapiens, UniProt P43405), has a reported pIC50 of 6.60 to 11.30

Entry `Oc1ccc(Nc2nc3cccc(-c4ccccc4)n3n2)cn1` , tested on Syk (Homo sapiens, UniProt P43405), has a reported pIC50 of 5.00 to 6.00
